Reference source: patent US12570657B2

# System: G361 (malignant melanoma)
# test_protocol: In vitro cytotoxicity, Calcein AM assay, G-361
# Type: cell-based
# assay_context: Homo sapiens, 72 h, 3-day Calcein-AM assay
Would you kindly list IC50 for each of these molecules?

> print(dat)
                                   molecule                measured.on  result.type    result
1  Fc1cccc(CNc2ncnc3nc[nH]c23)c1 [3FBAP, 6-(3-fluorobenzylamino)purine]  G361 (malignant melanoma)         IC50  > 167 µM
2  COc1ccc(CNc2ncnc3nc[nH]c23)cc1 [4MeOBAP, 6-(4-methoxybenzylamino)purine]  G361 (malignant melanoma)         IC50  ≥ 167 µM
3  Oc1cccc(CNc2ncnc3nc[nH]c23)c1 [meta-topolin (mT), 6-(3-hydroxybenzylamino)purine]  G361 (malignant melanoma)         IC50  > 167 µM

We now examine a further molecule.
Query IC50 on G361 (malignant melanoma) for Fc1ccc(CNc2ncnc3nc[nH]c23)cc1 [4FBAP, 6-(4-fluorobenzylamino)purine]
> 167 µM
